Where do these numbers come from? They come from patent US20080113383A1.

Molecular target: EGLN3
Assay: cell-based or functional assay
Where no end group is shown, it is not given here.
Rule: Activity (%)* below 40% gives satisfied, anything at or above gives not satisfied.

binder="DTDLDLEMLMPYIPMDDDFQ (not fully specified; printed as DTDLDLEMLMpYIPMDDDFQ) [DTDLDLEMLMpYIPMDDDFQ]" label="not satisfied"
binder="DTDLDLEMLEPYIPMDDDFQ (not fully specified; printed as DTDLDLEMLEpYIPMDDDFQ) [DTDLDLEMLEpYIPMDDDFQ]" label="not satisfied"
binder="DTDLDREALAPYIPADDDFQ (not fully specified; printed as DTDLDREALApYIPADDDFQ) [DTDLDREALApYIPADDDFQ]" label="not satisfied"

Request: Say whether its Activity (%)* is strictly beneath 40%. Entry: DTDLDVEAIAPYIPADDDFQ (not fully specified; printed as DTDLDVEAIApYIPADDDFQ) [DTDLDVEAIApYIPADDDFQ]
Response: not satisfied

Request: Say whether its Activity (%)* is strictly beneath 40%. Entry: DTDLDAEASAPYIPADDDFQ [DTDLDAEASApYIPADDDFQ]
Response: satisfied
